Target: truncated His-MBP-Tev-KLHDC2 (residues 1-363) (Homo sapiens, UniProt Q9Y2U9)
Construct: truncated His -MBP-Tev-KLHDC2 (residues 1-363) purified from E. coli; made in house; host or cells: E. coli
Experiment: KLHDC2 HTRF binding assay
Conditions: 1 nM KLHDC2 (residues 1-363), fluorescein-labeled diglycine peptide probe
IC50 reference

| MOLECULE | IC50 |
| --- | --- |
| O=C(O)Cn1cc(NC(=O)c2cccc(-c3cccc(F)c3)c2)ccc1=O | > 5 µM |

Tell us which IC50 value is on record for `O=C(O)Cn1cc(NC(=O)c2nccc3c(Cl)cccc23)ccc1=O` 0.5 to 5 µM

Tell us which IC50 value is on record for `O=C(O)Cn1cc(NC(=O)[C@H]2CCN(c3cccnc3)C2)ccc1=O` 0.5 to 5 µM

Tell us which IC50 value is on record for `O=C(O)Cn1cc(NC(=O)COc2ccc(Cl)cc2)ccc1=O` > 5 µM

Tell us which IC50 value is on record for `O=C(O)Cn1cc(NC(=O)[C@H]2CCCN(c3cccnc3)C2)c(C2CC2)cc1=O` > 5 µM

====

Biological target: truncated His-MBP-Tev-KLHDC2 (residues 1-363) (Homo sapiens, UniProt Q9Y2U9)
Construct: truncated His -MBP-Tev-KLHDC2 (residues 1-363) purified from E. coli; made in house; host or cells: E. coli
Test: KLHDC2 HTRF binding assay
Conditions: 1 nM KLHDC2 (residues 1-363), fluorescein-labeled diglycine peptide probe
IC50 reference

// worked examples, IC50 included
| COMPOUND | IC50 |
| --- | --- |
| O=C(O)Cn1cc(C(=O)NCc2ccccc2)ccc1=O | > 5 µM |
| Cc1cc(=O)n(CC(=O)O)cc1NC(=O)[C@H]1CCCN(c2cccnc2)C1 | 0.05 to 0.5 µM |
| Cc1nn(-c2ccc(F)cc2F)c(C)c1CC(=O)Nc1ccc(=O)n(CC(=O)O)c1 | > 5 µM |
| Cn1cc(NC(=O)c2cccc(-c3cccnc3)c2)cc(C(=O)O)c1=O | > 5 µM |

Please look at the following compound next.
Tell us which IC50 value is on record for O=C(O)CN1CC(NC(=O)c2ccccc2)CCC1=O (centres unmarked) > 5 µM

====

IC50 reference
Biological target: truncated His-MBP-Tev-KLHDC2 (residues 1-363) (Homo sapiens)
Construct: truncated His -MBP-Tev-KLHDC2 (residues 1-363) purified from E. coli; made in house; host or cells: E. coli
Sequence (Q9Y2U9 1-363): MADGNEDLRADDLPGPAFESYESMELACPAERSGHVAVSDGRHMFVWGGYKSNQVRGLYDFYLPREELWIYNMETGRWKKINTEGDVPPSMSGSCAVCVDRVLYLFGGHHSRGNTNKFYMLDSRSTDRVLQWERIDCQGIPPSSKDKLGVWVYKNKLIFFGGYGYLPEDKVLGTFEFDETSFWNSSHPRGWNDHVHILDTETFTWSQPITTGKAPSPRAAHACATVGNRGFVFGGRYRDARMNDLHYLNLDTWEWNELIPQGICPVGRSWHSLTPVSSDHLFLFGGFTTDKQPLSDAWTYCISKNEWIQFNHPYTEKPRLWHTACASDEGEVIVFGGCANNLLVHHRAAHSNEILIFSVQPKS
Assay: KLHDC2 HTRF binding assay
Conditions: 1 nM KLHDC2 (residues 1-363), fluorescein-labeled diglycine peptide probe

| MOLECULE | IC50 |
| --- | --- |
| Cc1cccc(Cl)c1C(=O)Nc1ccc(=O)n(CC(=O)O)c1 [I-319] | > 5 µM |
| CSCCC(NC(=O)c1ccccc1C)C(=O)Nc1ccc(=O)n(CC(=O)O)c1 (centres unmarked) [I-208] | > 5 µM |
| Cc1onc(-c2ccc(F)cc2)c1C(=O)Nc1ccc(=O)n(CC(=O)O)c1 [I-254] | > 5 µM |
| O=C(O)Cn1c(=O)oc2cc([N+](=O)[O-])ccc21 [I-214] | > 5 µM |
| C[C@H](C(=O)O)n1cc(NC(=O)c2cccc(-c3cccnc3)c2)ccc1=O [I-72] | 0.5 to 5 µM |

Tell us which IC50 value is on record for O=C(O)Cn1cc(C(F)(F)F)ccc1=O [I-429] > 5 µM

Tell us which IC50 value is on record for CC(C)(C)OC(=O)NCCCCCCn1ccc2c(C(=O)Nc3ccc(=O)n(CC(=O)O)c3)cccc21 [I-160] 0.05 to 0.5 µM

Tell us which IC50 value is on record for O=C(O)Cn1cc(CC(=O)Nc2ccccc2)ccc1=O [I-306] > 5 µM

Tell us which IC50 value is on record for O=C(O)Cn1cc(NC(=O)c2cccc(-c3ccc(C(F)(F)F)cc3)c2)ccc1=O [I-199] > 5 µM

Tell us which IC50 value is on record for COc1cc(-c2cccs2)ccc1C(=O)Nc1ccc(=O)n(CC(=O)O)c1 [I-153] 0.5 to 5 µM

Tell us which IC50 value is on record for CCCc1ccc(C)c(-c2ccc(=O)n(CC(=O)O)c2)c1 [I-349] > 5 µM

Tell us which IC50 value is on record for O=C(O)Cn1cc(N2CCc3cc(-c4cccnc4)ccc3C2=O)ccc1=O [I-68] 0.5 to 5 µM

Tell us which IC50 value is on record for O=C(O)Cn1cc(-c2cccc(/C=C/c3ccccc3)c2)ccc1=O [I-296] > 5 µM

Tell us which IC50 value is on record for O=C(O)Cn1cc(NC(=O)c2ccc(-c3ccccc3Cl)cc2)ccc1=O [I-197] > 5 µM

Tell us which IC50 value is on record for CC1CC(C(=O)Nc2ccc(=O)n(CC(=O)O)c2)CN(c2cccnc2)C1 (centres unmarked) [I-53] 0.05 to 0.5 µM

Tell us which IC50 value is on record for COc1cc(-c2ccc(=O)n(CC(=O)O)c2)ccn1 [I-378] > 5 µM

Tell us which IC50 value is on record for Cc1ccc(C(F)(F)F)cc1-c1ccc(=O)n(CC(=O)O)c1 [I-350] > 5 µM

Tell us which IC50 value is on record for COc1cc(-c2ccccc2)ccc1C(=O)Nc1ccc(=O)n(CC(=O)O)c1 [I-203] 0.5 to 5 µM

Tell us which IC50 value is on record for O=C(Nc1ccc(=O)n([C@H](F)C(=O)O)c1)c1cccc(-c2cccnc2)c1 [I-52] > 5 µM

Tell us which IC50 value is on record for COc1cccc2c(N3CCC[C@H](C(=O)Nc4ccc(=O)n(CC(=O)O)c4)C3)cncc12 [I-9] < 0.05 µM

Tell us which IC50 value is on record for O=C(O)Cn1cc(NC(=O)COc2ccccc2F)ccc1=O [I-279] > 5 µM

Tell us which IC50 value is on record for CCCOc1nc2ccccc2cc1C(=O)Nc1ccc(=O)n(CC(=O)O)c1 [I-188] > 5 µM
